assay: TLR3 IRF3 reporter activation blockers – cell-based, poly I:C stimulus, luciferase, 10K MLSCN set, primary screen (AID 602277); conditions: HEK293-TLR3 RL24 IRF3 luciferase reporter, at 10 µM, hits give high values
The source made the active and inactive calls.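 The calls were made as follows: active = inhibition of the reporter signal at or above 50%; inactive = inhibition below 50%.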
OBSERVED_PROPERTY: inhibition

Cc1cc(N2CCN(c3ccccn3)CC2)n2nc(C)nc2n1; -7.58% (inactive)
CCCCn1cnc2c1c(=O)n(C)c(=O)n2C; -3.57% (inactive)
Brc1ccc(-c2csc(/N=C/N3CCOCC3)n2)cc1; -171% (inactive)
COc1cc2nc(SCC(=O)NC3CC3)n(CCC3=CCCCC3)c(=O)c2cc1OC; 24.7% (inactive)
COC(=O)c1[nH]c2ccc(F)cc2c1NS(=O)(=O)c1ccc(OC)cc1OC; 45.4% (inactive)

// batch mode: one inhibition value per listed entry
1. O=C(OCn1nnc2ccccc2c1=O)C1CCN(S(=O)(=O)c2cccs2)CC1
2. Cc1cccc(NC(=O)Nc2cccc(C#N)c2)n1
3. Cc1cnn(Cc2ccccc2)c1N
4. CCN(CC)c1ccc(NC(=O)CN2C(=O)CC(C)(C)S(=O)(=O)c3ccccc32)c(C)c1
5. CN(C(=O)c1ccco1)c1nnc(C23CC4CC(CC(C4)C2)C3)s1
6. COc1cccc(-c2nc(CS(=O)CC(=O)NCCCOC(C)C)c(C)o2)c1 (stereo not given)

["2% (inactive)", "-135% (inactive)", "21.3% (inactive)", "-2.32% (inactive)", "-32.2% (inactive)", "7.08% (inactive)"]

// batch mode: one inhibition value per listed entry
1. O=C1c2ccccc2C(=O)N1CCC(=O)N1CCc2ccccc21
2. CCOc1ccc(-c2nc(C#N)c(N3CCN(C)CC3)o2)cc1

-26.2% (inactive)
11% (inactive)

// batch mode: one inhibition value per listed entry
1. O=C(Oc1ccccc1)c1cccc(COC(=O)c2cnccn2)c1
2. CC(C)Cn1c(CN2CCCCC2C)nc2c1c(=O)n(C)c(=O)n2C (stereo not given)
3. COC(=O)c1cc(OC)c(OCc2cc(C(=O)OC)oc2C)c(OC)c1
4. CCn1c(C)nc2cc(C(=O)OCCC(F)(F)F)ccc21
5. O=C(c1cnn2c(C(F)F)cc(C3CC3)nc12)N1CCOCC1

3.65% (inactive)
21.9% (inactive)
34.7% (inactive)
-104% (inactive)
18.5% (inactive)

// batch mode: one inhibition value per listed entry
1. O=S(=O)(c1ccc(S(=O)(=O)N2CCN3CCCC3C2)cc1)N1CCCC1 (stereo not given)
2. CCOC(=O)C1CCCN(c2c(Nc3ccc(C)c(C)c3)c(=O)c2=O)C1 (stereo not given)
3. CCCSc1nnc(-c2ccccc2NC(=O)CC)c(=O)[nH]1
4. CCc1nn2c(N3CCOCC3)cc(C)nc2c1-c1ccc(F)cc1
5. COc1cccc(CNC(=O)CCS(=O)(=O)c2cccc3nsnc23)c1
6. CC(C)(C)Cc1nc(-c2ccccn2)no1
7. CC1=Nn2c(nnc2-c2ccc(F)cc2)SC1

28.2% (inactive)
32.9% (inactive)
-2.41% (inactive)
18.4% (inactive)
24.3% (inactive)
-18.2% (inactive)
-3.16% (inactive)

###

test: reduction of polyQ htt aggregates in cells – imaging, exon1htt(103Q)mCFP cells, high-content imaging, primary screen (AID 483); details: exon1htt(103Q)mCFP cell line, aggregate imaging, at 2 µM; hits give high values;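 also: compound exposure lasted 3 days before fixation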
Active and inactive are the calls of the source.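 Rule for the calls: active = visual image review flags a hit and inhibition of aggregation exceeds 20%; inconclusive = visual hit but inhibition at or below 20%; inactive = no hit on visual image review.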
OBSERVED_PROPERTY: inhibition of aggregation

Examples with their reported inhibition of aggregation follow.
Cc1ccc(Nc2nc(N)nc(CN3CCCCCC3)n2)cc1; 2.4% (inactive)
CCCCn1c(NC(=O)CC)c(C#N)c2nc3ccccc3nc21; 31.7% (inactive)
S=C(c1cccs1)N1CCCC1; -3.8% (inactive)
CCCC(=O)Nc1nc2ccc(S(N)(=O)=O)cc2s1; -16.5% (inactive)
CCS(=O)(=O)N1CCCC(C(=O)NCc2ccccc2Cl)C1 (configuration not stated); -1.1% (inactive)
CCOC(=O)N1CCC(N2C(=O)c3ccccc3C2Nc2ccc3c(C)cc(=O)oc3c2)CC1 (configuration not stated); -19.4% (inactive)

// batch mode: one inhibition of aggregation value per listed entry
1. COc1ccc(C2CC(c3ccco3)n3ncnc3N2)cc1 (configuration not stated)
2. COc1ccc(N2C(=O)CC(N3CCN(c4ccccc4F)CC3)C2=O)cc1 (configuration not stated)
3. O=C(CN1CCCN(S(=O)(=O)c2ccc(Br)cc2)CC1)Nc1ccc2c(c1)OCO2
4. Oc1ccccc1-c1cc(C(F)(F)C(F)F)[nH]n1

["-19.3% (inactive)", "-1.9% (inactive)", "-15.4% (inactive)", "1.9% (inactive)"]

// batch mode: one inhibition of aggregation value per listed entry
1. Cc1cc(=O)[nH]c(=S)n1-c1ccccc1
2. CCS(=O)(=O)c1nc2ccccc2n1Cc1ccccc1Cl

1. 5.6% (inactive)
2. -10.2% (inactive)
